Cited source: the supplement of paper PMC10567573

B1: GOLPH3 (parent)
chain: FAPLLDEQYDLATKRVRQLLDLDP

- Variants of: B1
- Method Description: protein stability index of a GFP-peptide fusion (GPS, HEK-293T) (PSI 1-6); higher = more stable;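 further: lentivirally expressed fusions sorted by FACS into six bins by GFP to DsRed ratio, PSI derived from sequencing read proportions per bin multiplied by bin number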
- Test Parameters: c terminus: a fixed tail appended
Criterion: protein stability index meeting or surpassing 2. Met: MET. Not met: NOT MET.

As a guide, the following entries are already answered.
>>> class_name("K14M")
"NOT MET"
>>> class_name("L19Q")
"MET"

Test whether the variant A12G records protein stability index of 2 or higher. MET

Decide: is the reported value of protein stability index for P24S equal to or greater than 2? NOT MET

Would you say T13D shows protein stability index at minimum 2? MET

Please indicate if the recorded protein stability index for L19E meets or exceeds 2. MET

Threshold query (protein stability index >= 2) on K14I NOT MET

Given the entry L19K , answer whether its protein stability index meets or surpasses 2. MET

Confirm if protein stability index reported for the variant P3G is 2 or above. MET

Decide: is the reported value of protein stability index for P3S equal to or greater than 2? MET

Dear colleague, could you confirm whether L20P has protein stability index at or above 2? MET

Determine whether this variant has protein stability index no lower than 2: L19S MET

Kindly determine if protein stability index recorded for L11C is above or exactly 2. MET

Does the variant Q18C have recorded protein stability index that is 2 or more? NOT MET

Textbook exercise: given the entry Q18H , state whether its protein stability index is greater than or equal to 2. MET

Does L5K have a reported protein stability index of at least 2? MET

Check the entry T13Y : does protein stability index equal or exceed 2? NOT MET

Is reported protein stability index greater than or equal to 2 here: D10P MET

Reported protein stability index at or above 2? L11I MET

Could you verify whether the entry V16G shows protein stability index of no less than 2? MET
